Origin of values: PubChem BioAssay AID1159580

# protocol: chemical genetic growth profiling, strain panel (AID 1159580);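 also: tested at 20 µM; growth read once vehicle control cultures reached saturation at 30 °C; 1 = growth at the plate median or of vehicle wells; lower values mean less growth of the strain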
# settings: S. cerevisiae deletion strains, growth OD, locus YEL061C, strain CIN8 (second series), hits give low values
Screen size: about 5,500 compounds; about 2,000 (36%) were called active. Inconclusive results (about 18%) are left out. Some of the results follow.
Examples of molecules with documented normalized growth follow.
API doc: respond with a numeric literal and nothing else, no unit.

O=P1(N(CCCl)CCCl)NCCCO1 (stereo not given) | 0.98
CC(C)=CCCC(C)[C@@H]1CC[C@]2(C)C3=C(CC[C@@]12C)C1(C)CC[C@H](O)C(C)(C)C1CC3 (stereo not given in full) | 1.06
Cc1scc2c1N(C(=O)CN1CCN(C)CC1)c1ccccc1NC2=O | 0.96
CCOC(=O)[C@H](CCc1ccccc1)N[C@@H](C)C(=O)N1CCC[C@H]1C(=O)O | 0.999

For the next question, use this molecule.
INPUT: Report normalized growth for CC(CCc1ccccc1)NCC(O)c1ccc(O)c(C(N)=O)c1 (stereo not given) please.
OUTPUT: 1.01

----------
# protocol: chemical genetic growth profiling, strain panel (AID 1159580)
# settings: S. cerevisiae deletion strains, growth OD, locus YHR094C, strain hxt1, hits give low values
About 2,000 (36%) of roughly 5,500 compounds were called active. About 18% were inconclusive and are not listed. The list shows a part of the results.
Examples of molecules with documented normalized growth follow.
API doc: respond with a numeric literal and nothing else, no unit.

Past entries and their recorded results:
CC(C)CC1NC(=O)CNC1=O (stereo not drawn) | 0.972
CCCN(CCC)S(=O)(=O)c1ccc(C(=O)O)cc1 | 1.01
OC[C@H]1O[C@@H](O[C@H]2[C@H](O)[C@@H](O)[C@@H](O)O[C@@H]2CO)[C@H](O)[C@@H](O)[C@@H]1O | 1.05
O=C(NCO)c1cccnc1 | 0.982

INPUT: Report normalized growth for CC(=O)Oc1c(Cl)c(C)c2c(c1Cl)OC(=O)c1c(C)c(Cl)c(OC(C)=O)c(Cl)c1O2 please.
OUTPUT: 1.01

INPUT: For COC(=O)c1c(C)c2c(c(C)c1OC)OC(=O)c1c(C)c(Cl)c(OC)c(Cl)c1O2 then?
OUTPUT: 1.02

INPUT: For CC(Cc1cccc(C(F)(F)F)c1)NCCOC(=O)c1ccccc1 (stereo not drawn) then?
OUTPUT: 1.02

INPUT: For CC(C)CCCC(C)[C@H]1CCC2C3C(=O)C=C4C[C@@H](O)CC[C@]4(C)C3CC[C@@]21C (stereo partly drawn) then?
OUTPUT: 1.04

INPUT: For COC(=O)c1c(C)c2c(c(C)c1O)OC(=O)c1c(C)c(Cl)c(O)c(Cl)c1O2 then?
OUTPUT: 1.03

INPUT: For CCCc1cc(=O)[nH]c(=S)[nH]1 then?
OUTPUT: 0.993

INPUT: For Cc1c(C)c2c(c(C)c1O)CCC(C)(CCCC(C)CCCC(C)CCCC(C)C)O2 (stereo not drawn) then?
OUTPUT: 1

INPUT: For CS(=O)(=O)Nc1ccc([N+](=O)[O-])cc1Oc1ccccc1 then?
OUTPUT: 0.98

INPUT: For CC12CCC3C(CC3(C)C)C(C)(CCC1=O)O2 (stereo not drawn) then?
OUTPUT: 1.01

INPUT: For CC(CCc1ccccc1)NCC(O)c1ccc(O)c(C(N)=O)c1 (stereo not drawn) then?
OUTPUT: 1.02

INPUT: For CC(=O)Oc1ccc(O)cc1 then?
OUTPUT: 1.02

INPUT: For Nc1ccc(S(=O)(=O)NC(=O)c2ccccc2)cc1 then?
OUTPUT: 1.01

INPUT: For Oc1c(Cl)cc(Cl)cc1Sc1cc(Cl)cc(Cl)c1O then?
OUTPUT: 0.976

INPUT: For COC(=O)c1c(OC)cc2c(c1C)Oc1c(Cl)c(OC(C)=O)c(Cl)c(C)c1C(=O)O2 then?
OUTPUT: 1.01

INPUT: For CCN(CC)CCOC(=O)C(c1ccccc1)C1CCCCC1 (stereo not drawn) then?
OUTPUT: 0.975

----------
# protocol: chemical genetic growth profiling, strain panel (AID 1159580);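 also: tested at 20 µM; growth read once vehicle control cultures reached saturation at 30 °C; 1 = growth at the plate median or of vehicle wells; lower values mean less growth of the strain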
# settings: S. cerevisiae deletion strains, growth OD, locus YHR200W, strain rpn10, hits give low values
The whole screen tested about 5,500 compounds, of which about 2,000 (36%) were called active. Roughly 18% stayed inconclusive and do not appear here. The list shows a part of the results.
experimental endpoint: normalized growth
API doc: respond with a numeric literal and nothing else, no unit.

O=C(OCc1ccccc1)c1ccccc1 | 0.979

INPUT: Report normalized growth for CC1(C)CC2C1CC[C@]1(CBr)CCC3C(CC(=O)O)C(=O)O[C@@]32C1 (some centres not stated) please.
OUTPUT: 1

INPUT: For CC(=O)O[C@H]1CC[C@@]2(C)C(C[C@@H](OC(C)=O)[C@@]3(C)C4=CC(=O)O[C@@H](c5ccoc5)[C@]4(C)CCC23)C1(C)C (some centres not stated) then?
OUTPUT: 0.994

INPUT: For NC(=O)NC(=O)Cc1ccccc1 then?
OUTPUT: 0.991

----------
Examples of molecules with documented normalized growth follow.
# protocol: chemical genetic growth profiling, strain panel (AID 1159580);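 also: tested at 20 µM; growth read once vehicle control cultures reached saturation at 30 °C; 1 = growth at the plate median or of vehicle wells; lower values mean less growth of the strain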
# settings: S. cerevisiae deletion strains, growth OD, locus YJL168C, strain set2, hits give low values
The whole screen tested about 5,500 compounds, of which about 2,000 (36%) were called active. Roughly 18% stayed inconclusive and do not appear here. Some of the results follow.
API doc: respond with a numeric literal and nothing else, no unit.

Past entries and their recorded results:
C=C(C)C1(O)OC(=O)C=C1OC (stereo not given) | 0.992
CN(C)c1ccc(O)c2c1C[C@H]1C[C@H]3[C@H](N(C)C)C(=O)C(C(N)=O)=C(O)[C@@]3(O)C(=O)C1=C2O | 0.995
CCOC(=O)NNc1nncc2ccccc12 | 0.981
CC(=O)OCC(=O)[C@@]1(O)[C@H](C)CC2C3CCC4=CC(=O)C=C[C@]4(C)[C@@]3(F)[C@@H](O)C[C@@]21C (stereo not given in full) | 1.01
C=C1c2c(Cl)ccc(O)c2C(O)=C2C(=O)[C@]3(O)C(O)=C(C(N)=O)C(=O)[C@@H](N(C)C)[C@@H]3[C@@H](O)[C@H]12 | 0.974

INPUT: Report normalized growth for COc1ccccc1OCC(O)CO (stereo not given) please.
OUTPUT: 0.986

INPUT: For CC(C)CCCC(C)C1CCC2C3CC[C@H]4C[C@@H](O)CC[C@]4(C)C3CC[C@]12C (stereo not given in full) then?
OUTPUT: 1

INPUT: For OC[C@H]1O[C@@](CO)(O[C@@H]2O[C@H](CO)[C@@H](O)[C@H](O)[C@H]2O)[C@@H](O[C@@H]2O[C@H](CO)[C@@H](O)[C@H](O)[C@H]2O)[C@@H]1O then?
OUTPUT: 1.02

INPUT: For CCCc1c(OCCCCc2nn[nH]n2)ccc(C(C)=O)c1O then?
OUTPUT: 0.993

INPUT: For CC(C)CCCC(C)C1CCC2C3C[C@@H](O)[C@@]4(O)C[C@@H](O)CC[C@]4(C)C3CC[C@]12C (stereo not given in full) then?
OUTPUT: 1.01

----------
# protocol: chemical genetic growth profiling, strain panel (AID 1159580);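 also: tested at 20 µM; growth read once vehicle control cultures reached saturation at 30 °C; 1 = growth at the plate median or of vehicle wells; lower values mean less growth of the strain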
# settings: S. cerevisiae deletion strains, growth OD, locus YMR125W, strain sto1, hits give low values
About 2,000 (36%) of roughly 5,500 compounds were called active. Roughly 18% stayed inconclusive and do not appear here. Some of the results follow.
// NB: equality with 1 counts as No; only normalized growth strictly below is Yes

CN(C)[C@@H]1C(=O)C(C(=O)NCN2CCCC2)=C(O)[C@@]2(O)C(=O)C3=C(O)c4c(O)cccc4[C@@](C)(O)[C@H]3C[C@@H]12 | No
CN(C)[C@@H]1C(=O)C(C(N)=O)=C(O)[C@@]2(O)C(=O)C3=C(O)c4c(O)ccc(Cl)c4[C@@](C)(O)[C@H]3C[C@@H]12 | Yes
Cc1cc(=O)[nH]c(=S)[nH]1 | Yes
CCN(CC)CCOC(=O)C1(C2CCCCC2)CCCCC1 | Yes

INPUT: Given the entry CC(C)c1ccc2c(c1)CCC1[C@](C)(CN)CCC[C@]21C (some centres undefined) , would its reported normalized growth be below 1?
OUTPUT: Yes

INPUT: For CN(C)CCCN1c2ccccc2Sc2ccccc21 then?
OUTPUT: Yes

INPUT: For COC1CC2CCC(C)C(O)(O2)C(=O)C(=O)N2CCCCC2C(=O)OC(C(C)CC2CCC(O)C(OC)C2)CC(=O)C(C)/C=C(\C)C(O)C(OC)C(=O)C(C)CC(C)/C=C/C=C/C=C/1C (centres undefined) then?
OUTPUT: Yes
